test: amyloid nucleation score (Sup35N fusion, yeast selection) (log enrichment); library NNK2; higher = more nucleation; inactive = no reads after selection;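 also: zero at mode of non-aggregating sequences after 7 days selection at 30°C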
quantity: amyloid nucleation score
Form: value (number only, do not type unit).

[in] Hello, please tell me recorded amyloid nucleation score for this one: YVYTLGI
[out] -0.337

[in] Hello, please tell me recorded amyloid nucleation score for this one: RLWYSSSVLLV
[out] 0.709

[in] Give the value of amyloid nucleation score reported for the following: VPSHRPFVYHRKDLGFLGSV
[out] 0.269

[in] Fill in reported amyloid nucleation score for this entry: GYSYTLRDRCESRLTLRSDV
[out] 0.382

[in] For SVVYSFTRMPVGIFLMISEL , write its amyloid nucleation score.
[out] -0.552

[in] Provide amyloid nucleation score value for the following substance: VVILTFKAVYTAKFYACCAV
[out] -0.104

[in] Quickly give me recorded amyloid nucleation score for IFRAYIAGKTIYRCDQYVGM
[out] -0.539

[in] Identify measured amyloid nucleation score associated with SVRFAC
[out] -0.114

[in] Look up and state reported amyloid nucleation score for SYDPGITSSWMVRIRRVRMC
[out] -0.001

[in] Determine from records and report amyloid nucleation score for RLFANASGVDMEGTGYNRSD
[out] 0.359

[in] State its amyloid nucleation score: LVSYNITFEYHNGKGCGEYG
[out] 3.63

[in] Tell me measured amyloid nucleation score for RKNVYFIFPIISSLYKV please.
[out] 7.01

[in] Tell me its amyloid nucleation score given LMRLDLGT as the entry.
[out] -0.518

[in] Look up and report measured amyloid nucleation score for this entry: VREVDILYYC
[out] 0.418

---

assay: amyloid nucleation score (Sup35N fusion, yeast selection) (log enrichment); library NNK1; higher = more nucleation; inactive = no reads after selection
Exercise: state measured amyloid nucleation score for each of the substances provided.

[in] Complete the entry with amyloid nucleation score for GVGVCYFSC
[out] 2.2

[in] Name the recorded amyloid nucleation score of the substance listed here: FILPLCMGVLLSAIETLGTC
[out] 1.09

[in] Quote amyloid nucleation score reported for IYRDGIGTDIWFRGSICKCL please.
[out] 0.704

[in] # return recorded amyloid nucleation score for entry SWKIFIRIMTDYSIQFAYSY
[out] 1.88

[in] Supply recorded amyloid nucleation score for SPKSPPL here.
[out] -0.053

[in] Fill in amyloid nucleation score for record IRIFNKHGHGG
[out] -0.664

[in] Retrieve amyloid nucleation score measured for EYNSFWTVVSMILTVKWLSG and print it.
[out] 0.502

[in] Return value of amyloid nucleation score for input GWIRPVAKSRLWSFSPMEMI , no commentary.
[out] -0.768

[in] Report measured amyloid nucleation score; entry is NVKPSDDNVSLRNYGIRYLE
[out] -0.29

[in] For the substance VLMLCCMGSTRVCMTYMPDN , report amyloid nucleation score.
[out] 6.88

[in] Identify the reported amyloid nucleation score for the following entry. TYYKQYVLMYRALNFAGSWS
[out] 1.21

[in] Output measured amyloid nucleation score for this item: LYWNVVN
[out] -0.578

[in] Answer with the recorded amyloid nucleation score of FRSNGQNLVTAISSMDVRAN only.
[out] -2.14

[in] Give the measured amyloid nucleation score for LASGNILAICWTRSEGSDTL
[out] -0.313

[in] Please give measured amyloid nucleation score of the following entry: GGPVREYTRMSPSVGVLDEA
[out] 0.489

[in] State its amyloid nucleation score for this substance: LSSSWLNKKLH
[out] -0.647

[in] State its amyloid nucleation score for this substance: FSAKYMQGTQWSRLVHMLRT
[out] 0.112
